Source listed as patent US9980943B2.

Catalogue of compounds with associated activation at 7.66 µM
System: α7 integrin (LacZ reporter in α7LacZ+/− myoblasts)
test-protocol: qHTS of the LOPAC library and MLSMR (online screen, α7LacZ+/− myoblasts)
experimental-conditions: Mus musculus, Myoblast, 48 h, read-out: Activity at 7.660 uM [%] **
experimental-endpoint: activation at 7.66 µM

INSERT INTO results (compound, measurement) VALUES
  ('CN(C)/C=N/c1nccc(-c2cccs2)n1 [Compound 121]', '45%'),
  ('CN(C)/C(S)=N/c1cccc(C(F)(F)F)c1 [Compound 172]', '31.2%'),
  ('O=C(O)CCn1cc(/C=C2/NC(=S)N(c3ccccc3)C2=O)c(-c2ccccc2)n1 [Compound 65]', '27.2%'),
  ('COC(=O)C1=C(C)N=C(C)/C(=C(/O)OC)C1c1ccccc1OCc1c(C)no[n+]1[O-] (stereo not drawn) [Compound 12]', '84.6%'),
  ('COc1cc(C(C(=O)NC2CCCCC2)N(C(=O)c2snc(C(N)=O)c2N)c2ccc(C)cc2)ccc1O (stereo not drawn) [Compound 71]', '58.8%'),
  ('COCCSc1ccccc1C(=O)Nc1cc(C)cc(C)c1 [Compound 22]', '78.3%'),
  ('CCOC(=O)Cc1csc(NC(=S)NC(=O)c2cc(OC)c(OC)c(OC)c2)n1 [Compound 20]', '69.3%'),
  ('CCc1ccc(N(C(=O)c2snc(C(N)=O)c2N)C(C(=O)NC2CCCC2)c2ccco2)cc1 (stereo not drawn) [Compound 17]', '52.7%'),
  ('COC(=O)C(=O)C/C(=N/Nc1ncnc2ccccc12)c1ccc(Cl)cc1 [Compound 18]', '358%'),
  ('Cc1ccc(S(=O)(=O)N2CN(CC3CCCO3)c3nc4ccccc4nc32)c(C)c1 (stereo not drawn) [Compound 91]', '6.57%'),
  ('CCOc1ccc2ccccc2c1C1NC(=O)N(C)C(C)=C1C(=O)OCCOC (stereo not drawn) [Compound 76]', '55.1%'),
  ('O=C(CN1CCOCC1)NCc1cc([N+](=O)[O-])ccc1O [Compound 166]', '41.7%'),
  ('O=Cc1cnc(N2CCCCC2)s1 [Compound 191]', '-4.2%'),
  ('Cc1ccc(NP(=O)(Nc2ccc(C)cc2)Nc2ccc(C)cc2)cc1 [Compound 10]', '94.1%'),
  ('Nc1nccc(-c2ccc(-n3cnc4ccccc43)cc2)n1 [Compound 192]', '15.9%'),
  ('O=S(=O)(N/C(=N/C1CCCCC1)c1ccccc1F)c1ccccc1 [Compound 156]', '22.9%'),
  ('O=C(COC(=O)c1cc2ccccc2oc1=O)Nc1ccc(F)cc1F [Compound 60]', '78.3%'),
  ('COc1ccc(C(=O)N/C(=C/c2cccnc2)C(=O)N2CCN(C)CC2)cc1OC [Compound 92]', '54.9%');

###

Each entry below lists one item and its recorded CMV-LACZ in Myotubes, signal relative to DMSO value.
Test system: β-galactosidase in CMV-LacZ C2C12 myotubes
test-protocol: CMV-LacZ secondary screen in C2C12 myotubes (β-Gal stabilizing assay)
Assay type: cell-based, mouse
experimental-conditions: 5 uM; C2C12 CMV-LacZ myotubes; fold relative to DMSO
experimental-endpoint: CMV-LACZ in Myotubes, signal relative to DMSO

INSERT INTO measurements (compound, test_system, measurement) VALUES
  ('Cn1cc(CN(CCO)Cc2cccs2)c(-c2ccccc2F)n1', 'β-galactosidase in CMV-LacZ C2C12 myotubes', 1.0614),
  ('Cc1ccc(C(=O)N2CCN(S(=O)(=O)N3CCOCC3)CC2)cc1', 'β-galactosidase in CMV-LacZ C2C12 myotubes', 0.9322),
  ('N#Cc1ccccc1S(=O)(=O)N1CCN(C(=O)C2CCCCC2)CC1', 'β-galactosidase in CMV-LacZ C2C12 myotubes', 0.9831),
  ('Cc1ccccc1C(=O)Nc1nnc(SC(C)C)s1', 'β-galactosidase in CMV-LacZ C2C12 myotubes', 1.156),
  ('O=c1[nH]c(CN2CCCCC2)nc2c1C1(CCCCC1)Cc1ccccc1-2', 'β-galactosidase in CMV-LacZ C2C12 myotubes', 1.0348),
  ('CC(=O)Nc1ccc(NC(=O)c2cc(=O)c3cc(C)cc(C)c3o2)cc1', 'β-galactosidase in CMV-LacZ C2C12 myotubes', 0.8987),
  ('Cl.O=C1C2CCCN2C(=O)N1CCCN1CCN(c2cccc(Br)c2)CC1 (stereo not drawn)', 'β-galactosidase in CMV-LacZ C2C12 myotubes', 1.0533),
  ('CCOC(=O)C1=C(CC)Nc2ccccc2N=C1NC(=O)c1ccc(OC)c(S(=O)(=O)N2CCCCC2C)c1 (stereo not drawn)', 'β-galactosidase in CMV-LacZ C2C12 myotubes', 1.0186),
  ('Cc1ccsc1-c1n[nH]c(=S)n1C1CCCCC1', 'β-galactosidase in CMV-LacZ C2C12 myotubes', 0.9014),
  ('COc1cc(NC(=O)OCc2ccccc2)c2ncccc2c1', 'β-galactosidase in CMV-LacZ C2C12 myotubes', 0.9449),
  ('CCCCNC(=O)CSc1nnc(Cc2ccc(Cl)c(Cl)c2)c(=O)[nH]1', 'β-galactosidase in CMV-LacZ C2C12 myotubes', 0.9462),
  ('O=Cc1ccc(C(=O)OCC(=O)N2CCCC2)cc1', 'β-galactosidase in CMV-LacZ C2C12 myotubes', 0.8944),
  ('N#Cc1ccc(OCC(O)CS(=O)(=O)c2ccccc2)cc1 (stereo not drawn)', 'β-galactosidase in CMV-LacZ C2C12 myotubes', 0.9573),
  ('CCCCN(CC)Cc1ccc(CNC(=S)Nc2ccccc2F)o1', 'β-galactosidase in CMV-LacZ C2C12 myotubes', 1.0300),
  ('Cc1ccc(NC(=O)COc2ccccc2CNC(C)(C)CC(C)(C)C)cc1', 'β-galactosidase in CMV-LacZ C2C12 myotubes', 0.6613),
  ('O=c1[nH]c(SCc2ccc(Cl)cc2)nc2ccsc12', 'β-galactosidase in CMV-LacZ C2C12 myotubes', 1.0763),
  ('CN1C(=O)N(CC(=O)N2CCN(S(=O)(=O)c3ccc(Cl)s3)CC2)C(=O)C12CCCCC2', 'β-galactosidase in CMV-LacZ C2C12 myotubes', 1.1237),
  ('CCNC(=O)C(=O)Nc1cc2c3c(c1)CCN3C(=O)CC2', 'β-galactosidase in CMV-LacZ C2C12 myotubes', 1.1987);

###

Catalogue of CMV-LACZ in Myotubes, signal relative to DMSO readings, one per entry.
Tested on: β-galactosidase in CMV-LacZ C2C12 myotubes
test-protocol: CMV-LacZ secondary screen in C2C12 myotubes (β-Gal stabilizing assay)
Format: cell-based, mouse
experimental-conditions: 1 uM; C2C12 CMV-LacZ myotubes; fold relative to DMSO
From the text: In order to determine compounds that acted to stabilize β-gal in myogenic cells, a CMV-LacZ C2C12 cell line was used in a secondary screen. The EGFP gene from the pEGFP (Clontech) vector was replaced by LACZ PCR product with digests of the vector/PCR product performed using EcoRI (NEB) and NotI (NEB) and ligated using T4 DNA Ligase (NEB) following standard procedures to produce the CMV-LACZ vector. […]
experimental-endpoint: CMV-LACZ in Myotubes, signal relative to DMSO

INSERT INTO measurements (compound, measurement) VALUES
  ('NC(=O)c1sc2nc3c(cc2c1N)CCC3', 1.3937),
  ('O=c1c2cc(-c3ccccc3)sc2nc2n1N=C(c1ccccc1)CS2', 0.8419),
  ('COc1ccccc1CC(=O)Nc1cc(S(=O)(=O)N2CCOCC2)ccc1N1CCOCC1', 1.0036),
  ('CCN(CC(=O)NCc1cccs1)C(=O)COc1ccc(C(N)=O)cc1', 1.1400),
  ('COc1ccc(OC)c(NC(=O)CN2CCC(NC(=O)c3ccccc3C)CC2)c1', 0.8705),
  ('O=C(COc1ccc(Cl)cc1)N1CCN(C2CCCC2)CC1.O=C(O)C(=O)O', 1.4059),
  ('CN(CCC1CCCCO1)C(=O)CCc1nnc(CCCCc2ccccc2)o1 (stereo not drawn)', 1.0221),
  ('CCOc1ccc(Br)cc1S(=O)(=O)Nc1ccc(C(=O)Nc2ccccc2OC)cc1', 1.2819),
  ('CCOC(=O)c1nnn(-c2nonc2OC)c1-c1ccccc1', 0.8607);

###

System: β-galactosidase in CMV-LacZ C2C12 myotubes
test-protocol: CMV-LacZ secondary screen in C2C12 myotubes (β-Gal stabilizing assay)
Format: cell-based, mouse
experimental-conditions: 40 uM; C2C12 CMV-LacZ myotubes; fold relative to DMSO
Text: In order to determine compounds that acted to stabilize β-gal in myogenic cells, a CMV-LacZ C2C12 cell line was used in a secondary screen. The EGFP gene from the pEGFP (Clontech) vector was replaced by LACZ PCR product with digests of the vector/PCR product performed using EcoRI (NEB) and NotI (NEB) and ligated using T4 DNA Ligase (NEB) following standard procedures to produce the CMV-LACZ vector. […]
experimental-endpoint: CMV-LACZ in Myotubes, signal relative to DMSO

INSERT INTO results (compound, test_system, measurement) VALUES
  ('COc1cc(CNCc2ccc(C(=O)O)cc2)ccc1OCc1ccc(F)cc1.Cl', 'β-galactosidase in CMV-LacZ C2C12 myotubes', 1.08),
  ('O=C(NCCCn1ccnc1)/C(=C/c1cccs1)NC(=O)c1ccco1', 'β-galactosidase in CMV-LacZ C2C12 myotubes', 0.8582),
  ('CCCCNc1nnc(Cc2ccc(Cl)cc2)c(=O)[nH]1', 'β-galactosidase in CMV-LacZ C2C12 myotubes', 1.1035),
  ('COc1ccc(CNC(=O)CCN2C(=O)c3ccccc3C2=O)cc1', 'β-galactosidase in CMV-LacZ C2C12 myotubes', 1.0886),
  ('CC1(C)Cc2c(c(N3CCOCC3)nc3sc(C(=O)Nc4ccccc4)c(N)c23)CO1', 'β-galactosidase in CMV-LacZ C2C12 myotubes', 0.8388),
  ('O=C1CCC(C(=O)N2CCSCC2)CN1Cc1ccc(Cl)cc1 (stereo not drawn)', 'β-galactosidase in CMV-LacZ C2C12 myotubes', 0.9450),
  ('CC1(C)Cc2ccccc2-c2nc3n(c(=O)c21)CCS3', 'β-galactosidase in CMV-LacZ C2C12 myotubes', 0.9929),
  ('CC(=O)Nc1c(-c2ccc(Cl)cc2)c(=O)c2ccccc2n1C', 'β-galactosidase in CMV-LacZ C2C12 myotubes', 0.9566),
  ('Cc1[nH]c2ccc(F)cc2c1CCN(Cc1ccco1)C(=S)NC(C)(C)C', 'β-galactosidase in CMV-LacZ C2C12 myotubes', 0.7830);
